Experiment: Solubility in toluene
Type: physicochemical
Conditions: organic solvent or mixture, thermodynamic from solid; 20 mg mixed with toluene (1 mL); read-out: Solubility
Let's look at some compounds and their measured Solubility.
measuredQuantity: Solubility

* CC(C)CCCC(C)CCc1cc2ccc3c(sc4c5ccc6cc(CCC(C)CCCC(C)C)sc6c5sc34)c2s1 (centres unmarked) [Compound 5] | > 20 mg/mL
* CCCC(C)n1ccc2c3sc4c5ccc6c(ccn6C(C)CCC)c5sc4c3ccc21 (centres unmarked) [compound 3, reference compound] | < 20 mg/mL
* Cn1ccc2c3sc4c5ccc6c(ccn6C)c5sc4c3ccc21 [compound 1, reference compound] | < 20 mg/mL
* CCc1cc2cc3c(cc2s1)sc1c2cc4cc(CC)sc4cc2sc31 [compound 2, reference compound] | < 20 mg/mL
* c1cc2cc3sc4c5cc6sccc6cc5sc4c3cc2s1 [compound 4, reference compound] | < 20 mg/mL
